Measured growth, listed per entry.
- System: SNB-75 CNS
- experiment: NCI-60 one-dose screen, 48 h (100 = growth as untreated, 0 = no growth, -100 = all killed)
- assay.context: 10 µM
This is part of a sample that, as a whole, favours compounds with a hit. Of some 83,000 tested, about 20% had one in any assay. Active and inactive are the calls of the source. How the source made its calls: active means growth percent below 10; inactive means the rest.
measured.property: growth

CCCCSc1nc(Nc2ccc(/C(C)=N/NC(N)=S)cc2)c(C#N)c(-c2ccc(F)cc2)n1 ... 53.5% (inactive)
NC(=Nc1ccc(OCCCCCCCCn2ccnn2)cc1)c1ccccc1 ... 61.2% (inactive)
O=C(CNc1nc(-c2ccccc2)cs1)Nc1cccc([N+](=O)[O-])c1 ... -36.5% (active)
CC1=C(C(=O)OC(C)C)C(c2ccc(O)cc2)NC(=S)N1 (stereo unspecified) ... 217% (inactive)
O=C(CNc1nc(-c2ccccc2)cs1)Nc1ccccc1 ... 29.2% (inactive)
Cc1ccc(NC(=O)c2ccc(-n3c(=O)[nH]c4ccccc4c3=O)cc2)cc1 ... 50.5% (inactive)

====

- Test system: NCI-H226 lung
- experiment: NCI-60 one-dose screen, 48 h
- assay.context: 10 µM
- Method: Growth inhibition of the NCI-H226 human Non-Small Cell Lung tumor cell line is measured as a screen for anti-cancer activity. Cells are grown in 96 well plates and exposed to the test compound for 48 hours. Compounds are tested at a single concentration, which is 10^-5 M for most compounds. The reported endpoint is percent growth (GI% or GIPRCNT), where numbers from 0 - 100% represent growth inhibition, and numbers from -100% - 0 represent cell death. […]
The panel holds about 83,000 compounds, 20% with a hit somewhere; the sample as a whole holds those more often. Activity calls are given as the source filed them. How the source made its calls: active means growth percent below 10; inactive means the rest.
Classes used: class 1 (active), class 0 (inactive)

O=C(CSc1nnc(-c2c[nH]c3ccccc23)n1-c1ccccc1)Nc1ccc(C(=O)/C=C/c2ccc(Cl)cc2)cc1 ... class 0
CN1CCN(Cc2ccc(NC(=O)c3cncc(C#Cc4cnc5ccc(N[C@H]6CCOC6)nn45)c3)cc2C(F)(F)F)CC1 ... class 1
O=C(CS(=O)(=O)c1oc(-c2ccc(Cl)cc2)nc1S(=O)(=O)c1ccc(Cl)cc1)N1CCOCC1 ... class 0
Cc1noc2c(Cc3ccccc3)nn(CC(=O)N/N=C/c3ccc(Cl)cc3)c(=O)c12 ... class 0
COc1ccc([C@H]2C(C(=O)c3ccc(Cl)cc3)C3(N[C@@H]2c2ccccc2)C(=O)Nc2ccc(Cl)cc23)cc1 (some centres undefined) ... class 1
O=C1Nc2cc(-c3ccc(NC(=O)c4cccs4)cc3)ccc2/C1=C/c1ccc[nH]1 ... class 0
Cc1nc(Nc2nc(C)c3ccc(OCCN4CCOCC4)cc3n2)[nH]c(=O)c1C ... class 1
CN1C/C(=C\c2ccc(O)cc2O)c2[o+]c3cc(O)ccc3cc2C1 ... class 0
O=C1Nc2ccc(F)cc2/C1=C/c1cccc(OCc2ccccc2)c1 ... class 0

====

// reported growth for each item listed
- Test system: A498 renal
- experiment: NCI-60 one-dose screen, 48 h (100 = growth as untreated, 0 = no growth, -100 = all killed)
- assay.context: 10 µM
About 83,000 compounds went through this panel and 20% of them were active in at least one assay; those are over-represented in the sample as a whole.
measured.property: growth (%)

N#Cc1c(Cl)nc(SCc2ccc(F)cc2)nc1-c1ccc(F)cc1 ... 115
COc1ccc(N(C)c2cc(C#N)nc3ccccc23)cc1N ... 113
Nc1nc(Nc2ccc(Cl)cc2)n(Cc2cccc(Br)c2)n1 ... -49
CC1(C)[C@@H](NCO)CC[C@]2(C)[C@H]3C(=O)C=C4[C@@H]5C[C@](C)(CO)CC[C@]5(C)CC[C@@]4(C)[C@]3(C)CC[C@@H]12 ... 140
Nc1nc2c(F)c(F)c(F)c(F)c2s1 ... 114
O=c1nc(-c2ccccc2)cc(-c2cc3ccccc3nc2Cl)[nH]1 ... 104
N#Cc1c(NC(=O)c2ccc(C(O)(C(F)(F)F)C(F)(F)F)cc2)sc2c1CCC(=O)C2 ... 13.6
Cc1ccc(NC(=O)NCn2c(=O)[nH]c3ccccc3c2=O)cc1 ... 90.4
Cn1cc(-c2cc(N)n3nc(-c4c[nH]c5ccc(Br)cc45)cc3n2)c2cccnc21 ... -85.9
Cc1ccc(/C=C(\C#N)n2nnc3c(F)cccc32)cc1 ... 71.8
COc1cc(NC(=O)CSc2nnc(-c3ccc4nc(-c5ccc(Cl)cc5)[nH]c4c3)o2)cc(OC)c1OC ... 121
Clc1ccc2c(N/N=C/c3c[nH]c4ccc(Br)cc34)ccnc2c1 ... -77
COc1nccnc1NS(=O)(=O)c1ccc(NC2=C(Cl)C(=O)c3nc(C)ccc3C2=O)cc1 ... 94
Cc1nc(Nc2nc(C)c3ccc(OCCN4CCOCC4)cc3n2)[nH]c(=O)c1C ... -79
COc1ccccc1NCc1ccc(CO)n1-c1ccc(C)cc1 ... 123
O=C(CNc1nc(-c2ccccc2)cs1)Nc1ccc([N+](=O)[O-])cc1Cl ... 55
COc1ccc(CN2[C@@H](C(=O)NCc3ccc(C(=O)NO)cc3)Cc3c([nH]c4ccccc34)[C@@H]2C)cc1 ... -5.13
CN1CCN(Cc2ccc(NC(=O)c3cncc(C#Cc4cnc5ccc(N[C@H]6CCOC6)nn45)c3)cc2C(F)(F)F)CC1 ... -94.7
COc1ccc(-c2ccc(SCC(=O)Nc3ccc(C#N)cc3)nn2)cc1 ... 124
COc1ccc(-c2nc(S(=O)(=O)c3ccccc3)c(S(C)(=O)=O)o2)cc1 ... 113
